Tested on: Echinochloa crus-galli (ECHCG)
experiment-description: Biological Example 1 glasshouse assay for herbicidal activity
Assay type: in vivo
cond: Echinochloa crus-galli, post-emergence, 312 h, post-emergence, 250 g/ha, 13 days after application; read-out: percentage phytotoxicity ECHCG
reported-endpoint: pest or weed control at 250 g/ha (%)
Write the number in % without appending the unit.

Example results:
CC#Cc1cc(F)c(C2=C(OC(=O)C(C)(C)C)C3CCC(C3)C2=O)c(OC)c1 (stereo not shown) [Compound P1] | 100
CC#Cc1cc(F)c(C2=C(OC(=O)OCC)C3CCC(C3)C2=O)c(OC)c1 (stereo not shown) [Compound P2] | 100
CC#Cc1cc(F)c(C2C(=O)C3CCC(C)(C2=O)C3(C)C)c(OCC(F)(F)F)c1 (stereo not shown) | 10

Proceeding to the next compound to report its pest or weed control at 250 g/ha.
What value of measured pest or weed control at 250 g/ha is listed for CC#Cc1cc(F)c(C2C(=O)C3CCC(C3)C2=O)c(OC)c1 (stereo not shown) ?
100

* * *

Reported pest or weed control at 250 g/ha values follow for various compounds
System: Zea mays (ZEAMX, corn, maize, e.g. volunteer corn)
experiment-description: Biological Example 1 glasshouse assay for herbicidal activity
Type: in vivo
cond: Zea mays, pre-emergence, 312 h, pre-emergence, 250 g/ha, 13 days after application; read-out: percentage phytotoxicity ZEAMX
Write the number in % without appending the unit.

C#Cc1cc(F)c(C2C(=O)C3CCC(C3)C2=O)c(OC)c1 (stereo not drawn) | 100
CC#Cc1cc(F)c(C2C(=O)C3CCC(C3)C2=O)c(OC)c1 (stereo not drawn) | 100
COc1cc(C#CCl)cc(F)c1C1C(=O)C2CCC(C2)C1=O (stereo not drawn) | 70
CC#Cc1cc(F)c(C2C(=O)C3CCC(C3)C2=O)c(OCC)c1 (stereo not drawn) | 100
CC#Cc1cc(F)c(C2C(=O)C3CCC(C3)C2=O)c(OCCOC)c1 (stereo not drawn) | 90

Proceeding to the next compound to report its pest or weed control at 250 g/ha.
What value of measured pest or weed control at 250 g/ha is listed for CC#Cc1cc(F)c(C2=C(OC(=O)C(C)(C)C)C3CCC(C3)C2=O)c(OC)c1 (stereo not drawn) [Compound P1] ?
100

* * *

Reported pest or weed control at 250 g/ha values follow for various compounds
Tested on: SORVU (Sorghum bicolor (L.) Moench ssp. Bicolor, or Sorghum vulgare Pers.)
experiment-description: Biological Example 2 glasshouse assay for herbicidal activity
Type: in vivo
cond: post-emergence, 360 h, 250 g/ha, 14 or 15 DAA, 0.2% v/v X-77, read-out: percentage phytotoxicity SORVU
Write the number in % without appending the unit.

CC#Cc1cc(F)c(C2=C(OC(=O)SCC)C3CCC(C3)C2=O)c(OC)c1 (stereo not shown) | 100

What value of measured pest or weed control at 250 g/ha is listed for CC#Cc1cc(F)c(C2C(=O)C3CCC(C)(C2=O)C3(C)C)c(OC)c1 (stereo not shown) ?
90

What value of measured pest or weed control at 250 g/ha is listed for CC#Cc1cc(F)c(C2C(=O)C3CCC(C3)C2=O)c(OC(F)F)c1 (stereo not shown) ?
100

What value of measured pest or weed control at 250 g/ha is listed for CC#Cc1cc(F)c(C2=C(OC(=O)c3ccccc3)C3CCC(C3)C2=O)c(OC)c1 (stereo not shown) ?
100
